Values compiled from PubChem BioAssay (Tox21).

assay: qHTS assay to identify small molecule agonists of H2AX (AID 1224845); details: CHO-K1 phospho-H2AX Ser139 HTRF, 3 h; series mostly up to 154 µM
Results filed as inconclusive are left out. Calls of active or inactive are those of the source. Calls come from the whole dose curve; as a rule, active = well fitted activation curve with a large enough effect in the signal ratio in the repeat runs (not every such curve was filed as active); inconclusive = weak or mixed curves; inactive = flat fitted curve, though single readings scatter; the % refers to the signal ratio.
Reply using exactly one outcome from active, inactive

Example entries and their recorded answers appear below.
compound=CCCCCCCCCC[N+](C)(CCCCCCCCCC)CCC[Si](OC)(OC)OC cat=inactive
compound=Cn1ccnc1 cat=inactive
compound=C/C=C/C(=O)C1=C(C)C=CCC1(C)C cat=inactive
compound=c1ccc2c(c1)-c1ccc3ccc4cccc5cc-2c1c3c45 cat=inactive

For Cc1ccc(N=Nc2c(O)ccc3ccccc23)c(C)c1 , what call appears in the results of this test?
inactive

GET /call?item= CC1CCC(C(C)(C)O)CC1 (centres undefined) returns the recorded outcome of this test.
inactive

Hey, what did the test say about CCN(CCC#N)c1ccc(N=Nc2ccc([N+](=O)[O-])cc2)cc1 ?
inactive

Could you kindly confirm the outcome this assay logged for NC(=O)C1CO1 (centres undefined) ?
inactive

Status in this test for Cc1cc(C)c(O)c(C(C)(C)C)c1 ?
inactive

* * *

tested on: estrogen-related receptor alpha (ERRalpha) with PGC-1alpha coactivator, human; experiment: qHTS assay to identify small molecule antagonists of the estrogen related receptor signaling pathway with the pleiotropic PPARgamma coactivator (PGC) (AID 1224821); conditions: ERR/PGC reporter cell line, luciferase, antagonist mode; series mostly up to 46.1 µM;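 note: lower luminescence signal means antagonism of PGC/ERR signalling; nearly all actives have a fitted effect of over 50% in size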
Records with an inconclusive call do not appear. Calls of active or inactive are those of the source. Calls come from the whole dose curve.
measured-property: outcome

Worked set:
molecule=Cn1ccnc1 measurement=inactive
molecule=Cc1cc(Cn2cnc3c2C[C@@H](C(=O)O)N(C(=O)C(c2ccccc2)c2ccccc2)C3)ccc1N measurement=inactive
molecule=O=c1ccc2c(OCCCCc3ccccc3)c3ccoc3cc2o1 measurement=inactive
molecule="Cc1nc2n(c(=O)c1CCN1CCC(c3noc4cc(F)ccc34)CC1)CCCC2O (configuration not stated)" measurement=inactive
molecule=OC1(c2ccc(Cl)cc2)CCN(Cc2c[nH]c3ccccc23)CC1 measurement=inactive
molecule="CN1CCC2(CCN3CCc4c(oc5ccccc45)C3C2)N(C)C1=O (configuration not stated)" measurement=inactive

Looking for the measured outcome of NCCS(=O)O , can you help?
inactive

Would you kindly share the measured outcome for O=C(O)c1cc(=O)c2ccccc2[nH]1 ?
inactive

Fill in the blank: the reported outcome of O=C1CCC(c2ccc(-n3ccnc3)cc2)=NN1 is ____.
inactive

Endpoint output: outcome of O=C1c2ccccc2C(=O)c2c(NCCc3ccc(O)cc3)ccc(NCCc3ccc(O)cc3)c21 . Value?
inactive

Requested field: outcome. Item: N=S(=O)(O)Cc1noc2ccccc12
inactive

Given the molecule CCN(CC)CCOC(=O)c1cc(Cl)c(N)cc1OC , what is its reported outcome?
inactive

* * *

Assay: qHTS assay to identify small molecule agonists of the sonic hedgehog signaling (Shh) pathway - cell viability counter screen (AID 1259366); note: nearly all actives have a fitted effect of over 50% in size
Details: NIH/3T3 Gli1-Luc viability, CellTiter-Fluor, 24 h; series mostly up to 92.4 µM
Description: National Center for Advancing Translational Sciences [NCATS] NIH Chemical Genomics Center [NCGC] U.S. Environmental Protection Agency [EPA] National Institutes of Environmental Health Sciences [NIEHS] National Toxicology Program [NTP] U.S. Food and Drug Administration [FDA] The sonic hedgehog (Shh) pathway is essential for normal embryonic development. Dysregulation of the Shh pathway can cause severe developmental defects in organs. […]
Records with an inconclusive call do not appear. The source made the active and inactive calls. Calls come from the whole dose curve; as a rule, active = well fitted cell-killing curve with a large enough effect in the repeat runs; inconclusive = weak or mixed curves, or effect the other way; inactive = flat fitted curve, though single readings scatter.
In this exercise, the only acceptable responses are active, inactive

Record lookup: outcome of this test for CN(C)CCOc1ccc(/C(=C(/CCCl)c2ccccc2)c2ccccc2)cc1 ?
active

Could you please tell me the result logged for CC(C)=NNC(N)=S in this assay?
inactive

Please let me know the test result on file for Brc1cc(Br)cc(Br)c1 .
inactive

Tell me the recorded outcome of this test for CSc1ccc(O)cc1C .
active

Could you please tell me the result logged for CCCCCCCCSCc1cc(C)c(O)c(CSCCCCCCCC)c1 in this assay?
inactive

How was Nc1ccc2c(S(=O)(=O)O)cccc2c1S(=O)(=O)O classified in this test?
inactive

Tell me the recorded outcome of this test for CC(C)C(=O)C(C)C .
inactive

Record request — test call for Clc1nc(C(Cl)(Cl)Cl)c(Cl)c(Cl)c1Cl
inactive

// return assay outcome for O=S(=O)(c1ccc(OCc2ccccc2)cc1)c1ccccc1O
inactive

Call for entry CCN(CC)c1ccc(N=Nc2ccccc2)cc1 :
active

// return assay outcome for Oc1ccc(Cl)cc1C1CCCC1
inactive
